B1: TPR t1 (parent)
chain: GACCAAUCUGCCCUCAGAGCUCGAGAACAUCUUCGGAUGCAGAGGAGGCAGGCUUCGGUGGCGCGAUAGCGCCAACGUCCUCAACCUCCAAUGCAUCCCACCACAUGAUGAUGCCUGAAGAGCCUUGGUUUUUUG

- Variants of: B1
- Experimental details: polymerase ribozyme fitness, log enrichment relative to wild type (log ratio); higher = more active; in vitro selection for triplet polymerase activity
# cutoff -4 applies to polymerase ribozyme fitness (log ratio); >= gives Y, < gives N

Exercise: Please indicate if the recorded polymerase ribozyme fitness (log ratio) for `GACCAAUCUGCCCUCAGAGCUCGAGAAGAUCUUCGGAUGCAGAGGAGGCAGGCUUCGGUGGCGCGAUAGCGCCAACGUCCUCAACCUCCAAUGCAAGCCACCACAUGAUGAUGCCUCAAGAGCCUUGGUUUUUUG` meets or exceeds -4.
Solution: N

Exercise: What would you report for `GACCAAUCUGCCAUCAGAGCUCGAGAACAUCUUCGGAUGCAGAGGAGGCAGGCUUCGGUGACGCGAUAGCGCCAACGUCCUUAACCUCCAAUGCAUCCCACCACAUGAUGAUGCCUGAAGAGCUUUGGUUUUUUG` ?
Solution: Y

Exercise: What would you report for `GACCCAUCUGCCCUCAGAGCUCGAGAACAUCUUCGGAUGCAGAGGAGGCAGGCUUCGGUGGCGCGAUAGCGCCAACGUCCUCAUCCUCCAAUGCAUCCCACCACAUGAUGAUGCCUGAAGAGCCUUGGUUUUUUG` ?
Solution: Y

Exercise: What would you report for `GACCAAUCUGCGCUCAGAGCUCGAGAACAUCUUCGGAUGCAGAGGACGCAGGCUUCGGUGGCGCGUUAGCGCCAACGUCCUCAACCUCCCAUGCAUCCCACCACAUGAUGAUGCCUGAACAGCCUUGGAUUUUUG` ?
Solution: N

Exercise: What would you report for `GACCAAUCUGCCCUCAGAGCUCGAGAACAUCUUCGGAUUCAGAGGAGGCAGGCUUCGGUGGCGCGAUGGCGCCAACGUCCUCAACCUCCAAUGCAUCCCACCACAUGAUGAUGCCUGAAGAGUCUUGGUUUUAUG` ?
Solution: Y

Exercise: What would you report for `GACCAAUUUGCCCUCAGAGCUCGAGAACAUCUUCGGAUGCAGAUGAGGCAGGCUUCGGUGGCGCGAUAGCGCCAACGUCCUCAACCUGCAAAGCAUCCCACCACAUGAUGAUGCCUGAAGAGCCUUGGUUUUUUG` ?
Solution: Y

Exercise: What would you report for `GACCAAUCUGCCCUCAGAGCUCGAGUACAUCUUCGGAUGCAGAGGAGGCAGGCUUCGGUGGCGCGAUAGCGCCAACGUCCUCAACCUCCAAUGCAUCCCACCACAUGAUGAUGCCUGAAGAACCUUUGUUUUGUG` ?
Solution: N

Exercise: What would you report for `GACCAAUCUGCCCUCAGAGCUCGAGAACAUCUUCGGAUGCAGAGGAGGCAGGCUUCGGUGGCGCGAUAGCGGCAACGUCCUAAAACUCCAAUGCUUCCCACCACAUGAUGAUGCCUGAAGAGCCUUGGUUUUUUG` ?
Solution: N

Exercise: What would you report for `GACAACUCUGGCCUCAGAGCUCGAGAACAUCUUCGGAUGUAGAGGAGGCAGGCUUCGGUGGCGCGAUAGCGCCAACGUCCUCAACCUCCAAUGCAUCCCACCACAUGAUUAUGCCUGAAGAGCCUUGGUUUUUUG` ?
Solution: N

Exercise: What would you report for `GACCAAUCUGCCCUCAGAGCUCGAGAACAUCUUCGCAUGCAGAGGAGGCAGGCGUCGGUGUCGCGAUAGCGCCAACGUCCUCAACCUCCAAUGCAUCCCACCACAUGAUGAUGCCUGAAGAGCCUUGGUUUUUUG` ?
Solution: N

Exercise: What would you report for `GACCAAUCUGCCGUCAGAGCUCGAGAACAUCUUCGGAUGCAGAGGAGGCAGGCUUCGGUGGCGCGAUAGCGCCAACGUCCUCAACCUCCAAUGCAUCCCAACACAUGAUGAUGCCUGAAGAGCCUUGGUUUUUUG` ?
Solution: Y

Exercise: What would you report for `GACCAAUCUGCCCUCAGAGCUCGAGAACAUCUUCGGAUGCAGAGGAGGCAGGCUUCGGUGGCGCGAUAACGCCAGCGUCCUCAACCUCCAAUGCACCCCACCACAUGAUGAUGCCUGAAGAGCCUUGGUUUUUUG` ?
Solution: Y

Exercise: What would you report for `GACCAAUCUGCCCUCAGAGCUCGAGAACAUCUUCGGAUGCAGAGGGGGCAGGCUUCGGUGGCGCGAUAGCGGCAACGUCCUCAAGCUCCAAUGCAUCCCACCACAUGAUGAUGCCUGAAGAGCCUUGGUUUUUUG` ?
Solution: N

Exercise: What would you report for `GACCAAUUUGCCCUCAGAGCUCGAGAACAUCUUCGGAUGCAGAGGAGGCAGGCUUCGGUGGCGCGAUAGCGCAAACGUCCUCAACCUGCAAUGCAUCCCACCACAUGAUGAUGCCUGAAGAGCCUUGGUUUUUUG` ?
Solution: Y

Exercise: What would you report for `GACCAAUCUGCCCUCAGAGCUCGAGAACAUCUUCGGAUGCAGAGGAGGCAGGCUUCGGUGGCGCGAUAGCGGCAACGUCCUCAACCUCUAAUGCAUCCCACCACAUGAUGAUGCCUGAAGAGCCUUGGUUUUUUG` ?
Solution: Y

Exercise: What would you report for `GACCAAUCGGCCCUCAGAGCUCGAGAACAUCUUCGGAUGCAGAGGAGGCAGGCUUCGGUGGCGCGAUAGCGCCAACGUCCUCAACCUCCAAUGCAUCCCACCACUUGAUGAUACCUGAAGAGCCUUGGUUUUUUG` ?
Solution: N

Exercise: What would you report for `GACCAAUCUGCCCUCAGAGCUCGAGAACAUCUUCGGAUGCAGAGGAGGCAGGCUUCGGUGGCGCGAUAGCGCCAACGCCCUCAACAUCCAAUGCAUCCCACCACAUGAUGAUGCCUGAAGAGCCUUGGUUUUUUG` ?
Solution: Y

Exercise: What would you report for `GACCAAUCUGCCCUCAGAGCUCGAGAACAUCUUCUGAUGCAGAGGAGGCAGGCUUCGAUGGCGCGAUAGCGCCAACGUCCUCAACCUCCAAUGCAUCCCACCACAUGAUGAUGCUUGAAGAGCCUUGGUUUUUUG` ?
Solution: N

Exercise: What would you report for `GACCAAUCUGCCCUCAGAGCUCGAGAACAUCUUCGGAUGCAGAGGAGGCAGGCUUAGGUGGCGCGAUAGCGCCAACGUCCUCAACCUCCAAUGCAUCCAACCACAUGAUGAUGCCUGAAGAGCCUUGGUUUUUUG` ?
Solution: N

Exercise: What would you report for `GACCAAUCUGCCCUCAGAGCUCGAGAACAUCUUCGGAUGCAGAGGAGGCAGGCUUCGGUGGCGCGAUAGCGACAACGUCCUCAACCUCCAAUGCAUCCCACCACAUGAUAAUGCCUGAAGAGCCUUGGUUUUUUG` ?
Solution: Y

Exercise: What would you report for `GAUCAAUCUGCUCUCAGAGCUCGAGAACAUCUUCGGAUGCAGAGGAGGCAGGGUUUGGUGGCGCGAUAGCGCCAACGUCCUCAACCUCCAAUGCAUCCCACCACAAGAUGCUGCCUGAAGAGGCUUAGUUUUUUG` ?
Solution: N

Exercise: What would you report for `GACCAAUCUGCCCUCAGAGCUCGAGAACAUCUUCGGCUGCAGAGGAGGCAGGCUGCGGUGGCGCGAUAGCGCCAAUGUCCUCAACCUCCAAUGCAUCCCACCACUUGAUGAUGCCUGAAGAGCCUUGGUUUUUUG` ?
Solution: Y

Exercise: What would you report for `GACCAAUCUGCCCUCAGAGCUCGAGAACAUCUUCGGAUGCAGAGGAGGCAGGCUUCGCUUGCGCGAUAGCGCCAACGUCCUCAACCUCCAAUGCAUCCCACCACAUGAUGAUGCCUGGAGAGCCUUGGUUUUUUG` ?
Solution: Y

Exercise: What would you report for `GACCAGUCUGCCCUCAGAGCUCGAGAACAUCUUCGGAUGCAGAGGAGUCAGCCUUCGGUGGCGCGAUAGCGCCAACGUCCUCAACCUCCAAUGCAUCCCACCACAUGAUGAUGCCUGAAGAGCCUUGGUUUUUUG` ?
Solution: Y

Exercise: What would you report for `GACCAAUCUGCCCUCAGAGCUCGAGAACAUCUUCGGAUGCAGAGGGGGCAGGCUUCGGUGGCGCGAUAGCGCCAACGUCCUCAACCUCCAAUGCAUCCCACCUCAUGAUGAUGCCUGAAGAGCCAUGGUUUUUUG` ?
Solution: N

Exercise: What would you report for `GACCAAUCUGCCCUCAGAGCUCGAGAACAUCUUCGGAUGCAGAGGAGGCAGGCUUUGGUGGCGCGAUAGCGCCAACGUCUUCAACCUCCAAUGCAUCCCAUCACAUGAUGAUGCCUGAAGCGCCUUGGUUUUUUG` ?
Solution: Y

Exercise: What would you report for `GACCAAUCUGCCCUCAGAGCUCGAGAACAUCUUCGGAUGCAGAGGAGGCCGGCUUCGGUGGGGCGAUAGCGCCAACGUCCUCAACCUCCAAUGCAUCCCACCACAUGAUGAUGCCUGAAGAGCCUUGGUUUUUUG` ?
Solution: Y

Exercise: What would you report for `GACCAAUCUGCCCUCAGAGCUCGAGAACAUCUUCGGAUGCAGAGGAGGCAGGCUCCGAUUGCGCGAUAGCGCCAACGACCUCAACCUCCAAUGCAUCCCACCACAUGAUAAUGCCUGAAGAGCCUUGGUUUUUUG` ?
Solution: Y

Exercise: What would you report for `GACCAAUCUGCUCUCAGAUCUCGAGAACAUCUUCGGAUGCAGAGGAGGCAGGCUUCGGUGGCGCGAUAGCGCCAACGUCCUCAACCUCCCAUGCAUCCCACCACAUGAUGAUGCCUGAAGAGCCUUGGUUUUUUG` ?
Solution: Y

Exercise: What would you report for `GAUCAAUCUGCGCUCAGAGCUCGAGAACAUCUUCGGAUGCAGAGGAGGCAGGCUUCGGUGGCGCGAUAGCGUCAACGUCCUCAACCUCCAAUGCAUCCCACCACAUGAUGAUGCCUGAAGAGCCUUGGUUUUUUG` ?
Solution: Y

Exercise: What would you report for `GACCGAUCUGCCCUCAGAGCUCGAGAACUUCUUCGGAUGCAGAGGAGCCAGGCUUCGGUGGCGCGAUAGCGCCAACGUCCUCAACCUCCAAUGCAUCCCACCACAUGAUGAGGCCUGAAGAGCCUUGGUUUUUUG` ?
Solution: N

Exercise: What would you report for `GACCAAUCUACCCUCAGAGCUCGAGAACAUCUUCGGAUGCAGAGGAGGCAGGCUUCGGUGGCGCGAUGGCGCCAACGUCCUCAACCUCCAAUGCAUCCCACCACAUGAUGACGCCUGAAGAGCCUUGGUUUUUUG` ?
Solution: Y

Exercise: What would you report for `GACCAAUCUGCCCUCAGAGCUCGAGAACAUCUUCGGAUGCAGAGGAGGCAGGCUUCGGUGGCGCGAUAGCGCCAACGUCCCCAACCUCCAAUGCAUCCCACCACAUGAUGAUGACUGAAGAGCCUUGGUUUUUUG` ?
Solution: Y

Exercise: What would you report for `GACCAAUCUGACCUUAGAGCUCGAGAACAUCUUGGGAUGCAGAGGAGGCAGGCUUCGGUGGGGCGAUAGCGCCAACGUCCUCAACCUCCAAUGCUUCCCACCACAUGAUUAUGCCUGAAAAGCCUUGGUUUUUUG` ?
Solution: N

Exercise: What would you report for `GACCAAUCUGCCCUCAGAGCUCGAGAGCAUCUUCGGAUGCAGAGGAGGCAGGCUUCGGUGGCGCGAUAGCGUCAACGUCCUCAACCUCCAAUGCAUCCCAACAAAUGAUGAUGCCUGAAGAGCCUUGGUUUUUUG` ?
Solution: N
